Assay: qHTS profiling for inhibitors of Plasmodium falciparum proliferation (AID 504749);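 also: 0% = DMSO vehicle and full inhibition = artemisinin control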
Conditions: P. falciparum in erythrocytes, SYBR Green DNA, 72 h; at 12.8 µM (top of the series); parasite line A
Records with an inconclusive call do not appear.
Assay Readout: activity, negative = inhibition (%)
# value in %; strip the unit string

What measured activity, negative = inhibition goes with C[C@@H]1O[C@H](O[C@@H]2C=C3CC[C@H]4[C@@H](CC[C@]5(C)[C@@H](c6ccc(=O)oc6)CC[C@]45O)[C@@]3(C)CC2)[C@@H](O)[C@H](O)[C@@H]1O ? -2.59

Which measured activity, negative = inhibition value corresponds to CN(C)[C@@H]1C(=O)C(C(N)=O)=C(O)[C@]2(O)C(=O)C3=C(O)c4c(O)ccc(Cl)c4[C@](C)(O)[C@H]3C[C@@H]12 ? -8.57

# lookup: activity, negative = inhibition of C[N+]1([O-])[C@@H]2CC[C@H]1CC(OC(=O)[C@@H](CO)c1ccccc1)C2 (some centres undefined) 1.56

Query (molecule): CCNC[C@H](O)c1cccc(O)c1 ; field requested: activity, negative = inhibition -4.47

Quick one: activity, negative = inhibition for CN(C)C(=O)Oc1cc(OC(=O)N(C)C)cc([C@@H](O)CNC(C)(C)C)c1 ? 1.47

Tell me the measured activity, negative = inhibition of C[N+]1([O-])[C@@H]2CC(OC(=O)[C@@H](CO)c3ccccc3)C[C@@H]1[C@H]1O[C@H]12 (some centres undefined) , please. -0.201

Dear colleague, I am looking for the recorded activity, negative = inhibition of the following molecule: CC(=O)O[C@H]1CC[C@@]2(C)C(=CC[C@@H]3[C@H]2CC[C@]2(C)C(=O)CC[C@H]32)C1 8.47

Returns the measured activity, negative = inhibition for the input molecule. Input: NCC[C@H](O)C(=O)N[C@H]1C[C@@H](N)[C@@H](O[C@H]2O[C@@H](CN)[C@@H](O)[C@@H](O)[C@@H]2N)[C@@H](O[C@H]2O[C@@H](CO)[C@@H](O)[C@@H]2O)[C@@H]1O 12.6

So what does the record say about activity, negative = inhibition for CN[C@@H](C)[C@H]1CC[C@@H](N)[C@@H](O[C@@H]2[C@@H](O)[C@@H](O[C@H]3OC[C@@](C)(O)[C@@H](NC)[C@@H]3O)[C@H](N)C[C@@H]2N)O1 (tested in a mixture with another compound) ? 3.71

###

Can you tell me max response for the items I'm about to list?
Experiment: qHTS Assay for Lipid Storage Modulators (AID 1519)
Settings: Drosophila S3 cells, BODIPY lipid droplet/cell ratio, laser cytometry; measured here: cell count channel max response; cells loaded with oleic acid
Results filed as inconclusive are left out.
Dear colleague, please return just the value in %, with no unit written.

Can you look up the measured max response of C[C@@H]1O[C@H](O[C@H]2C[C@@H](O)[C@@]3(CO)[C@H]4[C@@H](O)C[C@]5(C)[C@@H](C6=CC(=O)OC6)CC[C@]5(O)[C@H]4CC[C@]3(O)C2)[C@@H](O)[C@H](O)[C@@H]1O for me? -4.59

What max response value was documented for this compound, NNCc1ccccc1 ? 5.74

# input compound: CC(=O)OC1CC2C(C)(C)C(O)C=C[C@@]2(C)C2CC[C@]3(C)C(=CC(=O)OC3c3ccoc3)[C@]12C (stereo partly specified) ; wanted: its max response -2.89

Item under review: CC1CC(O)[C@]2(O)[C@]13CC(=O)OC[C@@]2(C)[C@@](C)(O)C(=O)C3 (stereo partly specified) . Reported max response? 13.4

// lookup max response for CCC(=O)Nc1ccc(Cl)c(Cl)c1 9.78

Form field: reported max response of COc1cc(C(=O)OC2C[C@H]3CC[C@@H](C2)N3C)ccc1O (stereo partly specified) -32.4

Given COC1=CC(=O)O[C@@H](/C=C\c2ccccc2)C1 , state its recorded max response. -5.23

May I ask what max response has been recorded for CC(C)NC(=O)N1CC[C@@]2(CCCNC2)C1 ? 13.7

Need max response, item O=C(Oc1ccccc1)N1CCC2(CCCN(C(c3ccccc3)c3ccccc3)C2)CC1 7.72

I'd like to know its max response. The compound in question is CC[C@@H](CO)NC(=O)[C@H]1C=C2c3cccc4c3c(cn4C)C[C@H]2N(C)C1 18.8

Would you kindly share the measured max response for CC(=O)C1CC[C@H]2C3CC[C@@H]4CC(O)CC[C@@]4(C)C3CC[C@]12C (stereo partly specified) ? 9.69

I would be grateful if you could share the reported max response for CCNC[C@H](O)c1cccc(O)c1 . -11.3

Look up max response for this compound: Oc1ccc2c3c1O[C@H]1[C@@H](O)CC[C@]4(O)[C@H](C2)N(CC2CCC2)CC[C@@]314 3.75

Look up max response for this compound: C[N+]1(C)[C@@H]2CC[C@H]1CC(OC(=O)[C@@H](CO)c1ccccc1)C2 (stereo partly specified) -7.55

Please report the recorded max response for CNC1[C@@H](O)C(OC2C(N)C[C@H](N)[C@@H](O[C@@H]3OC(C(C)O)C(O)C(O)C3N)C2O)OC[C@]1(C)O (stereo partly specified) . 15

Name the recorded max response for CCC(C)C(=O)c1c(O)c(C)c2oc3c(C)c(O)c(C(=O)C(C)CC)c(O)c3c2c1O (stereo unspecified) . -3.74

Looking for the measured max response of O=C(O)COc1cc(Cl)c(Cl)cc1Cl , can you help? 13.2

Please look up its max response: NCC[C@H](O)C(=O)N[C@H]1C[C@@H](N)[C@@H](O[C@H]2O[C@@H](CN)[C@@H](O)[C@@H](O)[C@@H]2N)[C@@H](O[C@H]2O[C@@H](CO)[C@@H](O)[C@@H]2O)[C@@H]1O -10.6

Data request, read-out max response, for C[C@@]12CC[C@H](O)C[C@@H]1CC[C@H]1[C@@H]2C[C@@H](O)[C@]2(C)[C@@H](C3=CC(=O)OC3)CC[C@]12O -5.31

Please give the measured max response for this compound: O=C(Nc1cccc(F)c1)N1CC[C@@]2(CCCN(C(=O)Oc3ccccc3)C2)C1 6.61

# input compound: CC(=O)N[C@@H]1CCSC1=O ; wanted: its max response -9.82

Quick check: max response of CNC(=O)CSP(=S)(OC)OC ? 5.57

If you can, please state the reported max response value of c1ccc(N2CC3(CCNCC3)C2)cc1 . 11.6

Using the record for c1cc(N2CCCC3(CCNCC3)C2)ccn1 , report its max response. 13.5

What value of measured max response is listed for CN1C(=O)CCS(=O)(=O)[C@@H]1c1ccc(Cl)cc1 ? -4.45

Requested read-out: max response. Entry: CN1CC[C@]2(C)c3cc(O)ccc3N(C)[C@@H]12 -15.4
